- Assay System: Nonstructural protein 1 (Influenza A virus, UniProt Q194T2)
- Sequence (Q194T2 whole entry): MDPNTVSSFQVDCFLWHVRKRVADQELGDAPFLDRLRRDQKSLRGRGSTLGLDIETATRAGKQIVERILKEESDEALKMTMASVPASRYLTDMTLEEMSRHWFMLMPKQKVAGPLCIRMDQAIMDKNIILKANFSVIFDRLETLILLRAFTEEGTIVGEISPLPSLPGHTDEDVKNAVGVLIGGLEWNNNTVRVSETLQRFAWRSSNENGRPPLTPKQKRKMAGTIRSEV
- Format: functional, Influenza A virus (A/California/07/2009(H1N1))
Calls of active or inactive are those of the source.
Readout Kind: IC50

Use the examples below as a reference point.
> print(dat)
                               given.smiles  readout.kind       test.result
1             O=[N+]([O-])c1ccc(O)c2ncccc12          IC50  4.72 µM (active)
2  O=C(CSc1n[nH]c(-c2ccccn2)n1)Nc1ccc(F)cc1          IC50  5.65 µM (active)
3  CCN(CC)c1ccc(/C=C/c2ccc3ccc(OC)cc3[n+]2CC)cc1          IC50  17.3 µM (active)

GET /value?item= COc1cccc(/C=N/Nc2ncnc(Cl)c2N)c1O &field=IC50 returns 3.65 µM (active)

GET /value?item= O=C(Nc1nc(-c2ccccn2)cs1)c1cc(S(=O)(=O)N2CCOCC2)ccc1F &field=IC50 returns 7.21 µM (active)

GET /value?item= Cc1c(N/N=C2\C(=O)NC(=O)N(c3ccc(Br)cc3)C2=O)c(=O)n(-c2ccccc2)n1C &field=IC50 returns 6.25 µM (active)

* * *

- Assay Name: HIV-1 AD8 envelope cell-cell fusion blockers – cherry-pick, dose response (AID 652062);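 also: luciferase signal from cell-cell fusion driven by HIV-1 clade B AD8 Env; potency is for inhibitors of fusion seen as a drop in luminescence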
- Assay type: functional, cell-based
Activity calls are given as the source filed them.
Readout Kind: AC50

Use the examples below as a reference point.
> print(dat)
                                   compound       test.result
1             COc1ccc(Cl)cc1NC(=O)Nc1cnccn1  14.2 µM (active)
2  CCCCN1C(=O)C(O)(c2ccccc2)c2cc(Br)ccc21 (centres undefined)  7.82 µM (active)
3  CCN(CC)S(=O)(=O)c1ccc(N2CCCC2)c(NC(=O)Cc2cc(OC)c(OC)c(OC)c2)c1  7.04 µM (active)

Please turn your attention to the following entry.
GET /value?item= O=C1N(c2ccccc2)C[C@@H]2C[C@@H](c3cc4ccccc4o3)N3CCC[C@@]123 &field=AC50 returns 1.27 µM (active)

* * *

- Assay System: Short transient receptor potential channel 4 (Mus musculus, UniProt Q9QUQ5)
- Sequence (Q9QUQ5 whole entry): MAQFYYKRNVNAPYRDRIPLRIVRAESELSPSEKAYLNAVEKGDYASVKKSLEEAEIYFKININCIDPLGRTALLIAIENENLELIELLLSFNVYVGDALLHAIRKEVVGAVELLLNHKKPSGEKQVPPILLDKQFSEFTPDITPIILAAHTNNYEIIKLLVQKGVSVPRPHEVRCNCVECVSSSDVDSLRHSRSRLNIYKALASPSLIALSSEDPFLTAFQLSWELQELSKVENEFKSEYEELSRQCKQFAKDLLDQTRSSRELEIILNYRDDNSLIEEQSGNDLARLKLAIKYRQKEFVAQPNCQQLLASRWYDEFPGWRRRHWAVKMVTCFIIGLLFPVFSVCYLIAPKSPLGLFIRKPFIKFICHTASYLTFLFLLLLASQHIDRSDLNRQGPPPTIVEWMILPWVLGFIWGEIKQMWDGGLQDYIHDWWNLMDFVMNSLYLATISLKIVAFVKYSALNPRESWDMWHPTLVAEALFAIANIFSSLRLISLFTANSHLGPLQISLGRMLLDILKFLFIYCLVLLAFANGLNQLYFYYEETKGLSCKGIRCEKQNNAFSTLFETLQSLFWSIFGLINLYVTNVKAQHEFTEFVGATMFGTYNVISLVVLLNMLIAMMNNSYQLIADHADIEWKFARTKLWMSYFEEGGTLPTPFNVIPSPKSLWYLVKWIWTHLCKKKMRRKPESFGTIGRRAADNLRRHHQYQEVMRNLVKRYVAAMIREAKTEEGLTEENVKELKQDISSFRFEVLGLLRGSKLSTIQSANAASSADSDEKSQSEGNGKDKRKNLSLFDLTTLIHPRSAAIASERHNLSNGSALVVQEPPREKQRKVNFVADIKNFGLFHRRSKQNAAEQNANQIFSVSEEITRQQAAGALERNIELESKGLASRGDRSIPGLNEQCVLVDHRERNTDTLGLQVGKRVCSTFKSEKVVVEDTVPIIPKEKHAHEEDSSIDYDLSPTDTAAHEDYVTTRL
- Assay Name: block of DAMGO-driven TRPC4 calcium entry – cell-based, HEK293 TRPC4/mu-opioid, Fluo-4 calcium, dose response (AID 434942);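 also: potency of inhibitors blocking the TRPC4 calcium response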
- Type: functional
Active and inactive are the calls of the source.
Readout Kind: EC50

Use the examples below as a reference point.
> print(dat)
                                   compound        test.result
1            CCOCCCNCc1cc(Br)ccc1OCc1ccccc1   1.33 µM (active)
2  Cc1ccc(-n2nc(-c3cccs3)cc2C(=O)NCC2CCCO2)c(C)c1 (configuration not stated)   4.73 µM (active)
3  CC(C1CC2CCC1C2)n1c(S)nnc1-c1cccs1 (configuration not stated)   2.66 µM (active)
4            CNc1nc(SCc2ccccc2Cl)nc2c1CCCC2   4.73 µM (active)
5            Cc1ccc(OCCn2c(C)nc3ccccc32)cc1  0.944 µM (active)
6  O=C(N/N=C/c1cccnc1)c1ccccc1OCc1ccc(Cl)cc1    1.5 µM (active)

Please turn your attention to the following entry.
GET /value?item= OC1(c2cccs2)C[N+](c2ccc(Cl)cc2)=C2CCCCN21 (configuration not stated) &field=EC50 returns 2.66 µM (active)

* * *

- Assay System: Protein RecA (Mycobacterium tuberculosis)
- Sequence (P9WHJ3 whole entry): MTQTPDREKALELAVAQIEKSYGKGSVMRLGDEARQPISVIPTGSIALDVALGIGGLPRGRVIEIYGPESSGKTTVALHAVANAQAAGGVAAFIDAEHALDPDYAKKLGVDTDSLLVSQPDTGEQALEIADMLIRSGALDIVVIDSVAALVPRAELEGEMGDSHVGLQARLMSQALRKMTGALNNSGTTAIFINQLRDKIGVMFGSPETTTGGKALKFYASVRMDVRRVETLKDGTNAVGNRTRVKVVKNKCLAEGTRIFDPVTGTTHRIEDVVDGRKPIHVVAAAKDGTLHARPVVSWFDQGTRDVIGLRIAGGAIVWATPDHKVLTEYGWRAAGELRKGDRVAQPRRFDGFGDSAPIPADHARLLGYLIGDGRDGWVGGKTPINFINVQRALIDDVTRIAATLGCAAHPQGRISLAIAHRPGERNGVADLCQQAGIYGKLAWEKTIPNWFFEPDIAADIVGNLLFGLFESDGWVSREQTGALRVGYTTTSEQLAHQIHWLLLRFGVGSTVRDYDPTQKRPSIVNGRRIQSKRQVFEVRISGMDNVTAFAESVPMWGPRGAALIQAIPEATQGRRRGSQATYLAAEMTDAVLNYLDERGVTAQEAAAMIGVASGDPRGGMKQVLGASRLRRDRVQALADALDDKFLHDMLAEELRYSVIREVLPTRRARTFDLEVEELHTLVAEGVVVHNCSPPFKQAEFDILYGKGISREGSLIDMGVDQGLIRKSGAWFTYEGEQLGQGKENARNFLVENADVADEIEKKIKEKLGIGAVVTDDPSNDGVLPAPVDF
- Assay Name: Fluorescence Cell-Free Homogeneous Dose Retest to Identify Inhibitors of RecA-Intein Splicing Activity. [Related pubchem assays (depositor defined):AID2097, AID2223, AID489010, AID492950]
- Type: functional
The source made the active and inactive calls.
Readout Kind: EC50

Use the examples below as a reference point.
> print(dat)
                                   molecule                              assay.system        test.result
1  O=C(CCl)N(C/C=C/c1ccccc1)c1ccc2c(c1)OCCO2  Protein RecA (Mycobacterium tuberculosis)  0.356 µM (active)
2             O=[N+]([O-])c1ccc(O)c2ncccc12  Protein RecA (Mycobacterium tuberculosis)   14.4 µM (active)
3  Cc1ccc(NC(=O)c2cnc(SCC(=O)NCC3CCCO3)n(C)c2=O)cc1C (stereo not given)  Protein RecA (Mycobacterium tuberculosis)   2.23 µM (active)

// molecule CCN(CC)S(=O)(=O)c1cc(NC(=O)Cn2ncc(Cl)c(Cl)c2=O)ccc1C , assay Protein RecA (Mycobacterium tuberculosis), EC50 value: 14.5 µM (active)

// molecule Cc1sc(NC(=O)/C=C/C(=O)O)c(C(N)=O)c1-c1ccc(C(C)(C)C)cc1 , assay Protein RecA (Mycobacterium tuberculosis), EC50 value: 5.82 µM (active)

* * *

- Tested on: INS1
- Assay Name: INS-1E survival protection against cytokine death – cell-based, luminescence, retest, dose response (AID 449756);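 also: cell death triggered by IL-1 beta plus TNF-alpha plus IFN-gamma mixture; protective hits raise ATP signal compared with cytokine alone wells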
- Type: functional
- Test Settings: Rattus norvegicus
Activity calls are given as the source filed them.
Below, each entry is listed with its recorded AC50.

Use the examples below as a reference point.
> print(dat)
                                   compound  readout.kind       test.result
1  COC(=O)C[C@]1(C(=O)OC)CN(C#N)N(c2ccc(Cl)cc2)C12c1ccccc1-c1ccccc12          AC50  2.77 µM (active)
2  Cc1ccc(NC2=C/C(=N/S(=O)(=O)c3cccs3)c3ccccc3C2=O)cc1          AC50  0.72 µM (active)
3  Cc1ccccc1NC1=C/C(=N\S(=O)(=O)c2ccc(C(=O)O)cc2)c2ccccc2C1=O          AC50  4.38 µM (active)
4  C/C(=N\N1C(=O)c2ccccc2NC1c1ccccc1)c1ccccc1O (stereo not given)          AC50  2.24 µM (active)

Please turn your attention to the following entry.
GET /value?item= COc1cccc(/C=N/Nc2ncnc(Cl)c2N)c1O &field=AC50 returns 1.02 µM (active)

* * *

- Assay System: Estrogen receptor beta (Homo sapiens)
- Sequence (Q92731 whole entry): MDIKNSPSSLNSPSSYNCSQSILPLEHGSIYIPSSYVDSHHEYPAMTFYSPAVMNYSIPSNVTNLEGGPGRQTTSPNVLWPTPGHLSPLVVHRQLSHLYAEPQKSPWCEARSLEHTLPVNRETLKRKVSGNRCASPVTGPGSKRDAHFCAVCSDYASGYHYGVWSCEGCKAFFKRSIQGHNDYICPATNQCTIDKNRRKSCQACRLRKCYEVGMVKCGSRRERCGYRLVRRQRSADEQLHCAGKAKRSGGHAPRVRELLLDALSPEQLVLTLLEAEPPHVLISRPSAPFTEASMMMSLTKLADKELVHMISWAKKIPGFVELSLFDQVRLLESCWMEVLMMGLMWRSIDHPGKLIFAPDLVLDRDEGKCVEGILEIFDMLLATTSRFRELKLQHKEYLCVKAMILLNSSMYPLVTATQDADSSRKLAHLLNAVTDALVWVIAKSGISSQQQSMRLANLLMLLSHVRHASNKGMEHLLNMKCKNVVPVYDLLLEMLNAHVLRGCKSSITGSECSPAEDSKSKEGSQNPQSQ
- Assay Name: blockers of SRC-3 recruitment to ERβ – biochemical, ELISA, streptavidin-HRP readout, orthogonal assay, confirmation (AID 1060)
Active and inactive are the calls of the source.
Readout Kind: IC50

> print(dat)
                             given.smiles             test.result
1  CCOc1ccc2nc(NC(=O)CCC(=O)c3cccs3)sc2c1  0.0637 µM (not active)

GET /value?item= CCOc1ccccc1-n1nnnc1SCC(=O)NC(=O)NCc1ccco1 &field=IC50 returns 9.38 µM (not active)

GET /value?item= COCCn1c(C)cc(C(=O)COC(=O)c2cc3c(s2)CCC3)c1C &field=IC50 returns 14.9 µM (active)

GET /value?item= Cc1ccc(-c2nc3s/c(=C\c4ccco4)c(=O)n3n2)cc1 &field=IC50 returns > 50 µM (not active)

GET /value?item= CC(=O)Nc1nonc1-c1nc2ccccc2n1N(C(C)=O)C(C)=O &field=IC50 returns > 109 µM (not active)

GET /value?item= C=CCSC1=N/C(=C\C=C\c2ccco2)C(=O)S1 &field=IC50 returns > 50 µM (not active)
